- target or test system: Ba/F3 cells expressing the p210Bcr-Abl-T315I theramutein (Homo sapiens, UniProt P00519, T315I, cells depend on it)
- Construct: IC50 activity category, T315I; T315I cell line; even at 10 μM concentration; fused on or other part: P11274 (Breakpoint cluster region protein)
- experiment: cellular assay system: growth inhibition (cell count), Ba/F3 T315I cell line
- Type: cell-based, murine
- condition: concentration inhibiting growth of the cell line by 50%, read-out: IC50 activity category, T315I
value type: GI50

Example cases with answers are listed next.
- Fc1cnc(N/N=C/c2ccccc2)nc1N1CCOCC1: > 10 µM
- Cc1cc(Nc2cccc(C(F)(F)F)c2)ccc1/C=N/Nc1ncc(F)c(N2CCOCC2)n1: > 10 µM
- Cc1ccc(/C=N/Nc2ncc(F)c(N3CCOCC3)n2)cc1: > 10 µM
- Oc1cccc(Nc2cccc(Nc3ccc(/C=N/Nc4ncc(F)c(N5CCOCC5)n4)nc3)c2)c1: < 1 µM

Please find the next molecule below.
What value of measured GI50 is listed for "Fc1cnc(N/N=C/c2ccc(Nc3cccc(C(F)(F)F)c3)cn2)nc1-c1cncc(-c2ccccc2)c1" ? < 1 µM
